The reported measurements were obtained from patent US8119159B2.

Assay: in vivo
RESULT TYPE: bioavailability (%)
Just the number in %, nothing appended.

Q: I have this compound here, CCNC(=O)[C@@H]1CCCN1C(=O)[C@H](CCCNC(=N)N)NC(=O)[C@H](CC(C)C)NC(=O)[C@@H](CC(C)C)NC(=O)[C@H](Cc1ccc(O)cc1)NC(=O)[C@H](CO)NC(=O)[C@H](Cc1c[nH]c2ccccc12)NC(=O)[C@H](Cc1c[nH]cn1)NC(=O)[C@@H]1CCC(=O)N1 [leuprolide, leuprolide acetate] , and I need its recorded bioavailability.
Result: 8
